- target.entity: rat CB-1 receptor (Rattus norvegicus, UniProt P20272)
- Construct: The tissue obtained from the brain of SD rats was homogenized; from tissue; host or cells: SD rat brain (membrane pellet of homogenate)
- Sequence (P20272 whole entry): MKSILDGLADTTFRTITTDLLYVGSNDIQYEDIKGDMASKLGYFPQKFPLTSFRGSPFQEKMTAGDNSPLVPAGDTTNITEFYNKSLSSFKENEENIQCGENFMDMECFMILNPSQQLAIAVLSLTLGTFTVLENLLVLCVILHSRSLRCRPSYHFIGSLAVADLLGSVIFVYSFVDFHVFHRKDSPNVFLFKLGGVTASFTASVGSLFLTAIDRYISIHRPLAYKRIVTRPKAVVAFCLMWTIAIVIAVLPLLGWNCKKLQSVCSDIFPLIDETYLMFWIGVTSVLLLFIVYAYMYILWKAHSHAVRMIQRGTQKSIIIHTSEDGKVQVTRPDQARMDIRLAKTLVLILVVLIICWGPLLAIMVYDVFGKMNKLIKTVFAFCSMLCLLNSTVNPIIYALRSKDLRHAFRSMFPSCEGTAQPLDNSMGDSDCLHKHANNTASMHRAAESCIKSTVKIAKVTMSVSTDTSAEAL
- protocol: rat CB-1 receptor binding protocol with [3H]CP-55940 on SD rat brain tissue
- test.settings: [3H]CP-55940 displacement, SD rat brain homogenate, 30° C., 60 min; read-out: IC50 (binding affinity for CB1 receptor)
I'd appreciate it if you could label each record using IC50 and these ranges: label 0 = under 40 nM, label 1 = from 40 nM up to 100 nM, label 2 = 100 nM and over

Example results:
Cc1c(C(=O)NC(=O)CC(C)(C)C)nn(-c2ccc(Cl)cc2Cl)c1-c1ccc(Cl)cc1 label 1
Cc1c(C(=O)NCNC(=O)CC2CCCC2)nn(-c2ccc(Cl)cc2Cl)c1-c1ccc(Cl)cc1 label 2
Cc1c(C(=O)NC(=O)C2CCCCC2)nn(-c2ccc(Cl)cc2Cl)c1-c1ccc(Cl)cc1 label 0
CCCC(=O)NC(=O)c1nn(-c2ccc(Cl)cc2Cl)c(-c2ccc(Cl)cc2)c1C label 1
CCC(CC)C(=O)NC(=O)c1nc(-c2ccc(Cl)cc2Cl)n(-c2ccc(Cl)cc2)c1C label 0

Into which category would you place Cc1c(C(=O)NC(=O)OCc2ccccc2)nn(-c2ccc(Cl)cc2Cl)c1-c1ccc(Cl)cc1 ?
label 0

Into which category would you place Cc1c(C(=O)NCNC(=O)C2CCC2)nn(-c2ccc(Cl)cc2Cl)c1-c1ccc(Cl)cc1 ?
label 2

Into which category would you place Cc1c(C(=O)NC(=O)C(C)C)nn(-c2ccc(Cl)cc2Cl)c1-c1ccc(Cl)cc1 ?
label 2

----------
Hi there, I'd appreciate the recorded IC50 for every entry that follows.
- target.entity: rat CB-1 receptor (Rattus norvegicus, UniProt P20272)
- Construct: The tissue obtained from the brain of SD rats was homogenized; from tissue; host or cells: SD rat brain (membrane pellet of homogenate)
- protocol: rat CB-1 receptor binding protocol with [3H]CP-55940 on SD rat brain tissue
- test.settings: [3H]CP-55940 displacement, SD rat brain homogenate, 30° C., 60 min; read-out: IC50 (binding affinity for CB1 receptor)
Give bare numbers, in µM.

Completed entries (count: 3):
compound	target.entity	IC50 / µM
CCCCCCCC(=O)NCNC(=O)c1nn(-c2ccc(Cl)cc2Cl)c(-c2ccc(Cl)cc2)c1C	rat CB-1 receptor (Rattus norvegicus, UniProt P20272)	1.18
Cc1c(C(=O)NC(=O)C(C)(C)C)nc(-c2ccc(Cl)cc2Cl)n1-c1ccc(Cl)cc1	rat CB-1 receptor (Rattus norvegicus, UniProt P20272)	0.04
Cc1c(C(=O)NCNC(=O)C2CCCCC2)nn(-c2ccc(Cl)cc2Cl)c1-c1ccc(Cl)cc1	rat CB-1 receptor (Rattus norvegicus, UniProt P20272)	0.0492

Go through the items and report each one's IC50.
1. Cc1c(C(=O)NC(=O)NC2CCCCC2)nn(-c2ccc(Cl)cc2Cl)c1-c1ccc(Cl)cc1
2. Cc1c(C(=O)NC(=O)C(C)(C)C)nn(-c2ccc(Cl)cc2Cl)c1-c1ccc(Cl)cc1
3. Cc1c(C(=O)NCNC(=O)C(C)C)nn(-c2ccc(Cl)cc2Cl)c1-c1ccc(Cl)cc1
4. CC(=O)NC(=O)c1nn(-c2ccc(Cl)cc2Cl)c(-c2ccc(Cl)cc2)c1C
5. Cc1c(C(=O)NC(=O)NC(C)C)nn(-c2ccc(Cl)cc2Cl)c1-c1ccc(Cl)cc1

1. 0.39
2. 0.0327
3. 0.951
4. 0.383
5. 0.253

Go through the items and report each one's IC50.
1. Cc1c(C(=O)NC(=O)NCc2ccccc2)nn(-c2ccc(Cl)cc2Cl)c1-c1ccc(Cl)cc1
2. Cc1c(C(=O)NCNC(=O)C2CCCC(C)C2)nn(-c2ccc(Cl)cc2Cl)c1-c1ccc(Cl)cc1 (stereo not shown)
3. Cc1c(C(=O)NC(=O)C2CC2)nn(-c2ccc(Cl)cc2Cl)c1-c1ccc(Cl)cc1
4. Cc1c(C(=O)NC(=O)NC2CCCCCC2)nn(-c2ccc(Cl)cc2Cl)c1-c1ccc(Cl)cc1
5. CCCC(CCC)C(=O)NC(=O)c1nn(-c2ccc(Cl)cc2Cl)c(-c2ccc(Cl)cc2)c1C
6. CCC(CC)C(=O)NC(=O)c1nn(-c2ccc(Cl)cc2Cl)c(-c2ccc(Cl)cc2)c1C
7. Cc1c(C(=O)NC(=O)C2CCCC2)nn(-c2ccc(Cl)cc2Cl)c1-c1ccc(Cl)cc1

0.146
0.102
0.124
0.75
0.0269
0.0248
0.0672

Which IC50 value belongs to CCCC(CCC)C(=O)NC(=O)c1nc(-c2ccc(Cl)cc2Cl)n(-c2ccc(Cl)cc2)c1C ?
0.0754
